Assay: Growth of graft sarcoma 536 in rats
Assay type: in vivo
Details: rat, in vivo, ip, rats with sarcoma 536, repeated intraperitoneal administration; read-out: Maximum tolerable dose (MTD)
PROPERTY_NAME: MTD
# include the unit after the value

# input Quick one: MTD of O=C(CCBr)N1CC[N+]2(CC1)CC[N+]1(CCN(C(=O)CCBr)CC1)CC2 ?
# output 140 mg/kg

----------
Assay: Growth of graft sarcoma 180 in mice
Format: in vivo, noninbred white mice
Details: mouse, in vivo, ip; mice with sarcoma 180, repeated intraperitoneal administration; read-out: Maximum tolerable dose (MTD)
Procedure: The antitumor activity has been studied on white rats weighing 110-130 g, as well as on white noninbred and inbred mice weighing 17-21 g with ligated tumors. […] The compounds of the general formula (I), wherein X represents Cl^- (compound 1), Br^- (compound 2) are well-soluble in an isotonic solution of sodium chloride and they are administered intraperitoneally. The doses of the compounds have been calculated in mg per kg of the animal bodyweight.
PROPERTY_NAME: MTD (mg/kg)
Please reply with the bare figure in mg/kg and do not write the unit itself.

# input Quick one: MTD of O=C(CCBr)N1CC[N+]2(CC1)CC[N+]1(CCN(C(=O)CCBr)CC1)CC2 ?
# output 262

----------
Assay: Toxicity on single and repeated administration to mice
Format: in vivo
Conditions: mice, single intraperitoneal administration
PROPERTY_NAME: DL95 (absolutely lethal dose) (mg/kg)
Please reply with the bare figure in mg/kg and do not write the unit itself.

# input Quick one: DL95 (absolutely lethal dose) of OC(CCl)CN1CC[N+]2(CC1)CC[N+]1(CCN(CC(O)CCl)CC1)CC2 (stereo not shown) [Prospidin, reference compound] ?
# output 1200

# input Quick one: DL95 (absolutely lethal dose) of CN(C)c1nc(NP(=O)(N2CC2)N2CC2)c2c(ncn2C)n1 [Phopurine, reference compound] ?
# output 430

----------
Test: Growth of graft carcinoma HK in mice
Format: in vivo, noninbred white mice
Details: mouse, in vivo, ip; mice with carcinoma HK, repeated intraperitoneal administration; read-out: Maximum tolerable dose (MTD)
Experimental: The antitumor activity has been studied on white rats weighing 110-130 g, as well as on white noninbred and inbred mice weighing 17-21 g with ligated tumors. […] The compounds of the general formula (I), wherein X represents Cl^- (compound 1), Br^- (compound 2) are well-soluble in an isotonic solution of sodium chloride and they are administered intraperitoneally. The doses of the compounds have been calculated in mg per kg of the animal bodyweight.
PROPERTY_NAME: MTD (mg/kg)
Please reply with the bare figure in mg/kg and do not write the unit itself.

# input Quick one: MTD of O=C(CCBr)N1CC[N+]2(CC1)CC[N+]1(CCN(C(=O)CCBr)CC1)CC2 ?
# output 250
